# target or test system: human ether-à-go-go-related gene (hERG) potassium channel (human)
# Sequence (Q12809 whole entry, looked up): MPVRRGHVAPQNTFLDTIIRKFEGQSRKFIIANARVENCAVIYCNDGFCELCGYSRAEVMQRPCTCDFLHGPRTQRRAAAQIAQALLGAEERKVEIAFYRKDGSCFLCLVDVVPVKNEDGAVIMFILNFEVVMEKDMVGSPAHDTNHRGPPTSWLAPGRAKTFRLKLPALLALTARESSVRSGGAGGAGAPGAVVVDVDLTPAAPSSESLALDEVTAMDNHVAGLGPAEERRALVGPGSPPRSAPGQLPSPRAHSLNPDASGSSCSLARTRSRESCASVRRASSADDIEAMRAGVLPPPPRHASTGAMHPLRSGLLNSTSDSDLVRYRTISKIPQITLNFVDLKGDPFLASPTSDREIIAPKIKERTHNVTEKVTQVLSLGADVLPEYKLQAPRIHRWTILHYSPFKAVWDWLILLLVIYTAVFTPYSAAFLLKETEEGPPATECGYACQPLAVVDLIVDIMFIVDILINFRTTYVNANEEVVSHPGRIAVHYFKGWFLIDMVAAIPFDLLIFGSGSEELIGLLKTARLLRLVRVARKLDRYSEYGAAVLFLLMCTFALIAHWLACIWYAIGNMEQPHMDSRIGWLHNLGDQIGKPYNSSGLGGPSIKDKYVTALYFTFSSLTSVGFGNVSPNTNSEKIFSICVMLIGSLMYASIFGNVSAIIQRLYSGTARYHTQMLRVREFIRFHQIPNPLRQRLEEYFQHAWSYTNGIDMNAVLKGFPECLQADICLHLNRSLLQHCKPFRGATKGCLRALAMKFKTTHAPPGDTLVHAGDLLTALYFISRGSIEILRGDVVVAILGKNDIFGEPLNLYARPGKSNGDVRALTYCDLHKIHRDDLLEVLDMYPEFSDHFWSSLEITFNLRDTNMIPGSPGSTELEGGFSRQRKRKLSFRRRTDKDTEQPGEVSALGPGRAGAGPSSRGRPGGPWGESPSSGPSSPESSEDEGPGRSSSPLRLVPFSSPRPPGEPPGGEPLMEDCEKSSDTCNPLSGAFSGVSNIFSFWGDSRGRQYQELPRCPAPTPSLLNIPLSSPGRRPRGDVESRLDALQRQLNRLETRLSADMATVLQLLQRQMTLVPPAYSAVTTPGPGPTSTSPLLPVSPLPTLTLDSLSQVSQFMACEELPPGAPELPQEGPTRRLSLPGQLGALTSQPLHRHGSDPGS
# protocol summary: primary screen, population patch clamp on CHO cells stably expressing hERG; higher = less effect of the substance
# Text: Briefly, Chinese hamster ovary (CHO) cells stably expressing the hERG channel were dislodged from tissue culture flasks and dispensed into PPC plates. […] Small molecule effects on hERG current density were quantified by […].
Out of some 310,000 compounds screened, about 2,200 (0.71%) showed an effect of 50% or more. Effects have a minus sign here. The list comes from a sample in which strong results are over-represented; it also holds close analogues and randomly drawn compounds.
assay readout: hERG current change (%, negative = inhibition) at 1uM (%)
Respond with the bare value in %.

q: State its hERG current change (%, negative = inhibition) at 1uM for this compound: COc1cccc(N2CCN(CC(=O)C34CC5CC(CC(C5)C3)C4)CC2)c1
a: 14

q: State its hERG current change (%, negative = inhibition) at 1uM for this compound: Cc1ccc(N2CC(C(=O)Nc3ccccc3C(=O)NC3CCCCC3)CC2=O)cc1 (stereo not drawn)
a: 5.42

q: State its hERG current change (%, negative = inhibition) at 1uM for this compound: Cc1cccc(-n2c(O)c(/C=N/NC(=O)c3ccccc3Cl)c3ccccc3c2=O)n1
a: 9.11

q: State its hERG current change (%, negative = inhibition) at 1uM for this compound: CCS(=O)(=O)Nc1ccc(C2=NN(C(=O)c3ccco3)C(c3cccc(F)c3)C2)cc1 (stereo not drawn)
a: 0.693

q: State its hERG current change (%, negative = inhibition) at 1uM for this compound: Cc1csc(NC(=O)CCCc2cccs2)n1
a: 1.69

q: State its hERG current change (%, negative = inhibition) at 1uM for this compound: CS(=O)(=O)O.Oc1ccc(C2CNCCc3c2cc(O)c(O)c3Cl)cc1 (stereo not drawn)
a: -0.982

q: State its hERG current change (%, negative = inhibition) at 1uM for this compound: CS(=O)(=O)Nc1ccc(C2=NN(C(=O)c3ccco3)C(c3cccc(F)c3)C2)cc1 (stereo not drawn)
a: -85.9

q: State its hERG current change (%, negative = inhibition) at 1uM for this compound: CS(=O)(=O)Nc1ccc(C2=NN(C(=O)c3ccco3)C(c3ccc(F)cc3)C2)cc1 (stereo not drawn)
a: -44.7

q: State its hERG current change (%, negative = inhibition) at 1uM for this compound: COc1cc(CCC(=O)OCC(=O)Nc2ccc(C)cc2Cl)cc(OC)c1OC
a: 15.1
